- Test system: FT3469 (normal neural stem cell line)
- experimental-protocol: phenotypic distance (Euclidean, principal components) from DMSO controls (arbitrary units); higher = stronger morphological change
- test-context: 1000 nM; exposure time: 72 h
Structures can show the parent of a compound that is named as a salt.
Can you tell me phenotypic distance for the items I'm about to list?

Ask: Which measured phenotypic distance belongs to CC[C@]1(O)C[C@@H]2CN(CCc3c([nH]c4ccccc34)[C@@](C(=O)OC)(c3cc4c(cc3OC)N(C)[C@H]3[C@@](O)(C(=O)OC)[C@H](OC(C)=O)[C@]5(CC)C=CCN6CC[C@]43[C@@H]65)C2)C1 [Vinblastine sulfate] , tested on FT3469?
Reply: 5.04

Ask: Which measured phenotypic distance belongs to CCC(C)n1ncn(-c2ccc(N3CCN(c4ccc(OCC5COC(Cn6cncn6)(c6ccc(Cl)cc6Cl)O5)cc4)CC3)cc2)c1=O (centres undefined) , tested on FT3469?
Reply: 1.14

Ask: Which measured phenotypic distance belongs to CCC[C@@H]1C[C@@H](C(=O)N[C@@H]([C@H]2O[C@H](SC)[C@H](O)[C@@H](O)[C@H]2O)[C@@H](C)O)N(C)C1 [Lincomycin hydrochloride] , tested on FT3469?
Reply: 1.03

Ask: Which measured phenotypic distance belongs to COc1cc2c[n+](C)c3c4cc5c(cc4ccc3c2cc1OC)OCO5 [Nitidine chloride] , tested on FT3469?;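 note: cell Painting imaging in 384-well plates, CellProfiler features reduced to at least 20 principal components, Euclidean distance versus same-plate DMSO vehicle wells (0.1% v/v), median over six images per well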
Reply: 2.35
